Data provenance is patent US20260132208A1.

# Experimental target: T1, human CCR8 with a SNAP-tag at the N-terminus (human, UniProt P51685 1-355, SNAP-tag labelled covalently with Lumi4-Terbium)
# T1 construct: also called hCCR8 SNAP-tag; CCR8 SNAP-tag
# Experiment notes: HTRF Tag-lite, inhibition of hCCL1-AF647 binding to SNAP-hCCR8 on HEK-293 cells
Assay metric: IC50 (µg/mL)
Express the result in µg/mL but write the number alone.

Binder: Ref #1 (antibody, human IgG1, V domains shown, Benchmark; cloned into vectors encoding heavy and light chains of human IgG1, produced in CHO; also called TPP-21360 of WO 2021/260210) VH: EVQLLESGGGLVQPGGSLRLSCAASGFTFSSYGMHWVRQAPGKGLEWVSAINWNGGSTGYADSVKGRFTISRDNSKNTLYLQMNSLRAEDTAVYYCARGHHSGYDGRFFDYWGQGTLVTVSS VL: QSVLTQPPSVSGAPGQRVTISCTGSSSNIGAGYNVHWYQQLPGTAPKLLIYTNNRRPSGVPDRFSGSKSGTSASLAISGLRSEDEADYYCAAWDASLSGWVFGGGTKLTVL
Meas value: 0.45

Next up:
Task: Data request, read-out IC50, for anti-CCR8 mAb 1-25 (antibody, human IgG1, kappa, V domains shown, Humanized mAb, human IgG1 / kappa) VH: QVQLVESGGGVVQPGRSLRLSCAASGFTFSNYRMHWVRQAPGKGLEWIAVIKVKSDNYGANYADSVKGRFTISRDNSKNTLYLQMNSLRAEDTAVYYCSSPTYPGSSGFAYWGQGTLVTVSS VL: DIQMTQSPSSLSASVGDRVTITCRASQDISNYLNWYQQKPDGTVKLLIYYTSRLHTGVPSRFSGSGSGTDYTLTISNLQQEDIATYFCQQGNKFPPTFGGGTKVEINR
Output: 0.02
